// provenance: PubChem BioAssay (NCI)

System: OVCAR-3 ovarian
assay-name: NCI tumour cell line growth inhibition, 48 h; in the data active = GI50 below about 0.43 µM; inactive = the rest
Labels: Yes = active, No = inactive

compound: CC#Cc1nc(Nc2cc(C)[nH]n2)c2ccccc2n1
target-under-test: OVCAR-3 ovarian
assigned-class: No
//
compound: CC(=O)c1nc2ccccc2n1CC(=O)c1cccc(Cl)c1
target-under-test: OVCAR-3 ovarian
assigned-class: Yes
//
compound: CN(C)/N=N/c1nc[nH]c1C(N)=O
target-under-test: OVCAR-3 ovarian
assigned-class: No
//
compound: CCCCCCCCCCCCCCCC1=NC(C)(C)CN1C(C)C
target-under-test: OVCAR-3 ovarian
assigned-class: No
//
compound: O=C(NC(=S)Nc1cc(Cl)ccc1O)c1cccc(Br)c1
target-under-test: OVCAR-3 ovarian
assigned-class: No
//
compound: CS(=O)(=O)N(c1cc(-c2ccc3ncnc(Nc4cccc(Cl)c4)c3c2)cnc1Cl)S(C)(=O)=O
target-under-test: OVCAR-3 ovarian
assigned-class: Yes
//
compound: CC(=O)[CH-]C(C)=O.CC(=O)[CH-]C(C)=O.CC[O-].CC[O-].[Ti+4]
target-under-test: OVCAR-3 ovarian
assigned-class: No
//
compound: COc1cc(NC(=O)C2=C(N3CCOCC3)/C(=C/c3ccc(Cl)cc3)CC2)cc(OC)c1OC
target-under-test: OVCAR-3 ovarian
assigned-class: No
//
compound: NC(=S)NN=C1CSSC1
target-under-test: OVCAR-3 ovarian
assigned-class: No
//
compound: Cc1ccc([C@]2(C)CC[C@H](C)/C2=C\Br)c(O)c1
target-under-test: OVCAR-3 ovarian
assigned-class: No
//
compound: Cc1cc(Nc2cc(N)ncn2)c(=O)n2c1C(=O)NC21CCCCC1
target-under-test: OVCAR-3 ovarian
assigned-class: No
//
compound: O=C1OCC2=C1C(c1ccccc1)c1cc3c(cc1N2CCO)OCCO3 (configuration not stated)
target-under-test: OVCAR-3 ovarian
assigned-class: Yes
//
compound: N.N.O=P([O-])([O-])C1(P(=O)([O-])[O-])CCCCCN1.[Pt+2]
target-under-test: OVCAR-3 ovarian
assigned-class: No
//
compound: COc1cc(-c2csc(NC(=O)Nc3cc(Cl)cc(Cl)c3)n2)cc(OC)c1OC
target-under-test: OVCAR-3 ovarian
assigned-class: No
//
compound: Cn1cc(C2=C(N3CCOCC3)C(=O)NC2=O)c2ccccc21
target-under-test: OVCAR-3 ovarian
assigned-class: No
//
compound: Cc1ccc(Sc2cc3c(oc2=O)-c2ccccc2OC3O)cc1 (configuration not stated)
target-under-test: OVCAR-3 ovarian
assigned-class: No
//
compound: Cc1c(Cl)cccc1NC(=O)c1sc2nc3c(cc2c1N)CCCCC3
target-under-test: OVCAR-3 ovarian
assigned-class: Yes

###

System: 786-0 renal
assay-name: NCI tumour cell line growth inhibition, 48 h

molecule: COc1cccc2c1n([O-])c1cccc(OC)c1[n+]2=O
unit-tag: µM
inequality-sign: =
TGI: 28.8

molecule: Fc1cc(-c2cc(-c3ccc4c(c3)OCO4)n[nH]2)c(Cl)cc1Cl
unit-tag: µM
inequality-sign: =
TGI: 3.59

molecule: COc1cc(NC(=O)C2=C(N3CCOCC3)/C(=C/c3ccc(Cl)cc3)CC2)cc(OC)c1OC
unit-tag: µM
inequality-sign: =
TGI: 33.1

molecule: Cc1ccc(Sc2cc3c(oc2=O)-c2ccccc2OC3O)cc1 (configuration not stated)
unit-tag: µM
inequality-sign: =
TGI: 51.6

molecule: CN(C)CCCNCc1cccc2ccccc12
unit-tag: µM
inequality-sign: >
TGI: 100

molecule: O=C1C(Cl)=C(Nc2cccc(O)c2)C(=O)N1Cc1ccc(Cl)cc1Cl
unit-tag: µM
inequality-sign: =
TGI: 18.8

molecule: Cc1ccc(NC(=O)CSC(N)=O)cc1C
unit-tag: µM
inequality-sign: >
TGI: 100

molecule: O=C(CC/C(CC(=O)c1ccc(Br)cc1)=N\O)Nc1ccc(Cl)c(Cl)c1
unit-tag: µM
inequality-sign: >
TGI: 100

molecule: C/C(=N\NC(=S)N(C)C)c1ccccn1
unit-tag: µM
inequality-sign: =
TGI: 11.3

molecule: CCSc1ccc(C2C(Br)C(=O)N2c2cc(OC)c(OC)c(OC)c2)cc1 (configuration not stated)
unit-tag: µM
inequality-sign: =
TGI: 13.1

molecule: C=CC1=C(C)C2=NC1=CC1=NC(=C(CC)/C1=C\O)C=C1N=C3C(=C1C)C(=O)[C@H](C(=O)OC)C3=C1NC(=C2)[C@@H](C)[C@@H]1CCC(=O)O
unit-tag: µM
inequality-sign: >
TGI: 100

molecule: Nc1ncc(-c2cccc(S(N)(=O)=O)c2)c2scc(-c3ccc(F)c(Cl)c3)c12
unit-tag: µM
inequality-sign: =
TGI: 17

molecule: CCN1CCC(O)(/C=C/c2ccc(C(C)C)cc2)C(C(=O)/C=C/c2ccc(C(C)C)cc2)C1 (configuration not stated)
unit-tag: µM
inequality-sign: =
TGI: 3.4

molecule: CC1(C)CC(N(C(=O)/C=C/c2ccc([N+](=O)[O-])o2)C2CCCCC2)CC(C)(C)N1
unit-tag: µM
inequality-sign: =
TGI: 19.4

molecule: CCCCCCCCCCCCCCCC1=NC(C)(C)CN1C(C)C
unit-tag: µM
inequality-sign: =
TGI: 2.94

molecule: O=[N+]([O-])c1cccc2nccc(NCCCO)c12
unit-tag: µM
inequality-sign: =
TGI: 37

molecule: COc1cc(-c2csc(NC(=O)Nc3cc(Cl)cc(Cl)c3)n2)cc(OC)c1OC
unit-tag: µM
inequality-sign: =
TGI: 3.33

molecule: O=C(O)C(Oc1nc(=S)[nH]c(=S)[nH]1)(c1ccc(Cl)cc1)c1ccc(Cl)cc1
unit-tag: µM
inequality-sign: >
TGI: 100

molecule: Cc1cc(I)cc(CN(C)CCCN2CCN(C)CC2)c1O
unit-tag: µM
inequality-sign: >
TGI: 54.2

molecule: Cc1ccc(C(=O)CC2=Nc3nnc(CCCCCCCc4nnc5n4C(=O)C(CC(=O)c4ccc(C)cc4)=N5)n3C2=O)cc1
unit-tag: µM
inequality-sign: >
TGI: 100

molecule: Cc1ccc(-n2cc([Si](C)(C)C)nn2)s1
unit-tag: µM
inequality-sign: >
TGI: 100

molecule: O=C(CSc1nc2ccccc2c(=O)n1-c1ccccc1)N=Nc1c(O)[nH]c2ccc(F)cc12
unit-tag: µM
inequality-sign: =
TGI: 5.05

molecule: COc1c(B(O)O)cc(F)cc1-c1nc2ccc3[nH]ncc3c2c2c1CCCC2
unit-tag: µM
inequality-sign: =
TGI: 5.84

molecule: CC(C)(C)CC(C)(C)c1ccc(O)c(C[N+](C)(C)[O-])c1
unit-tag: µM
inequality-sign: >
TGI: 100

molecule: CCN(CC)C(=S)[S][Bi]([S]C(=S)N(CC)CC)[S]C(=S)N(CC)CC
unit-tag: µM
inequality-sign: =
TGI: 0.299

molecule: CCc1cccc(C)c1NC(=O)CC1C(=O)Nc2ccccc2S1(=O)=O (configuration not stated)
unit-tag: µM
inequality-sign: =
TGI: 31.5

molecule: CC(=O)/C(=C/N1CCNC1=S)C(=O)Nc1ccccc1C
unit-tag: µM
inequality-sign: >
TGI: 100

molecule: COc1ccc2c(c1)OC[C@@H]1c3cc(O)c(OCc4ccccc4)cc3O[C@H]21
unit-tag: µM
inequality-sign: >
TGI: 100

molecule: O=C1c2ccccc2C(=O)c2[nH]c(Cc3ccc(F)cc3)nc21
unit-tag: µM
inequality-sign: =
TGI: 43.8

molecule: C=C(C)CNC(=S)N(N)c1ccc2ccccc2c1
unit-tag: µM
inequality-sign: >
TGI: 100

molecule: CCN(Cc1c(Cl)cccc1Cl)c1ccc(CO)c(Cl)c1
unit-tag: µM
inequality-sign: =
TGI: 28.1

molecule: Cc1cn(S(=O)(=O)c2ccccc2)c2c(OCc3ccccc3)cc(NS(C)(=O)=O)cc12
unit-tag: µM
inequality-sign: >
TGI: 100

molecule: CCN(CC)CC(=N)N(CC)c1ccccc1
unit-tag: µM
inequality-sign: >
TGI: 100

molecule: Cc1c(C(=O)O)n2cnnc2c2ccccc12
unit-tag: µM
inequality-sign: >
TGI: 100

molecule: COc1cc2c3c(n(C)c(=O)c2cc1OC)-c1cc2c(cc1/C3=C\CCNCCCN)OCO2
unit-tag: µM
inequality-sign: =
TGI: 12.5

molecule: CC[C@H](C)C(=O)O[C@H]1C[C@H](O)C=C2C=C[C@H](C)[C@H](CC[C@@H](O)C[C@@H](O)CC(=O)O)[C@H]21
unit-tag: µM
inequality-sign: >
TGI: 100

molecule: COc1ccc(Nc2nc(N)c(C(=O)c3cccs3)s2)cc1
unit-tag: µM
inequality-sign: >
TGI: 56.6

molecule: CC(=O)[O-].O=C([CH-]C(=O)c1ccccc1)c1ccccc1.O=C([CH-]C(=O)c1ccccc1)c1ccccc1.[Sm+3]
unit-tag: µM
inequality-sign: =
TGI: 16.3

molecule: CC(=O)N/C(=C\c1ccc(Cc2nc3c([nH]2)C(=O)c2ccccc2C3=O)cc1)c1nc2c([nH]1)C(=O)c1ccccc1C2=O
unit-tag: µM
inequality-sign: >
TGI: 100

molecule: CCC[CH2][Sn]1([CH2]CCC)[O]CC(C)[O]1 (configuration not stated)
unit-tag: µM
inequality-sign: =
TGI: 2.84

molecule: COC(=O)c1nn(C(=N)c2ccc(Cl)cc2)c2c1CCC2
unit-tag: µM
inequality-sign: >
TGI: 100

molecule: CC(=O)c1cc(O)c2ccccc2c1O
unit-tag: µM
inequality-sign: =
TGI: 35.2
